Origin of measurements: paper PMC5877509

Molecular target: hASCT2 (Homo sapiens, UniProt Q15758, C467A)
Construct: recombinant hASCT2-His6, purified from P. pastoris, in proteoliposomes
Sequence (Q15758 1-541 C467A): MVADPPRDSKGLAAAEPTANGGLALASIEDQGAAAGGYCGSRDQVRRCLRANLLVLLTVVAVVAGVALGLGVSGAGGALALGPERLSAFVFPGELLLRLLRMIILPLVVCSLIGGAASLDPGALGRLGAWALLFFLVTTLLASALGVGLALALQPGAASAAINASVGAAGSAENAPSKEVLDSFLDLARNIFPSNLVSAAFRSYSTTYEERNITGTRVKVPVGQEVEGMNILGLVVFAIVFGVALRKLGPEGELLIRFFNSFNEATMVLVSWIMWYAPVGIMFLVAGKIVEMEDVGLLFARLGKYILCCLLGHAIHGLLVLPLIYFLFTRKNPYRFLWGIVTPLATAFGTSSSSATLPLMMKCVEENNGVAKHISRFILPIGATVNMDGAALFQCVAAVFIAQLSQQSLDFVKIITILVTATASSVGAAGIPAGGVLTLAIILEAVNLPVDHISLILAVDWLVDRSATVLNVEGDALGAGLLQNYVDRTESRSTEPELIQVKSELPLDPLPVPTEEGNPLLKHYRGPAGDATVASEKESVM
Experiment: [3H]Gln transport inhibition in proteoliposomes, dose-response
MEASUREMENT KIND: pIC50
Please keep in mind that pIC50 is minus log10 of the molar concentration; only the number is needed.

Query string: Which pIC50 value belongs to N[C@@H](CS)C(=O)O ?
Result string: 4.78
